The origin of these recorded values is patent US20230391752A1.

Tested on: HBV
Assay: In vitro anti-HBV activity in HepG2.2.15 cell line (intracellular HBV DNA by qPCR at 1 μM)
Type: cell-based
Conditions: Hepatitis B virus, 144 h; HepG2.2.15 cells, 1 μM compound, 6 days, intracellular HBV DNA as percentage compared to vehicle control (0.5% DMSO)
Each record here notes measured activity at 1 µM.

| smiles_code | activity at 1 µM |
| --- | --- |
| Cc1ncc(-c2ccc(C(=O)N3CC[C@H](C(=O)Nc4cc(F)c(F)c(F)c4)C3)[nH]2)cn1 | < 45% |
| N#Cc1c[nH]c(C(=O)N2CC[C@H](C(=O)Nc3ccc(F)c(Cl)c3)C2)c1 | > 90% |
| Cc1cc(NC(=O)[C@@H]2CN(C(=O)c3[nH]c4ccccc4c3Cl)C[C@H]2C)ccc1F | 45 to 60% |
| Cc1cc(NC(=O)[C@H]2CCN(C(=O)c3ccc(-c4ccnnc4)[nH]3)[C@H]2C)ccc1F | < 45% |
| Cc1nccnc1-c1ccc(C(=O)N2CC[C@H](C(=O)Nc3cc(F)c(F)c(F)c3)[C@@H]2C)[nH]1 | < 45% |
| Cc1ncnc(C)c1-c1cccc2c(Cl)c(C(=O)N3CC[C@H](C(=O)Nc4ccc(F)c(C#N)c4)C3)[nH]c12 | 45 to 60% |

Q: Given "O=C(Nc1cc(F)c(F)c(F)c1)[C@H]1CCN(C(=O)c2ccc(C(F)F)[nH]2)C1" , state its recorded activity at 1 µM.
A: 70 to 80%

Q: Recorded activity at 1 µM of "C[C@H]1[C@@H](C(=O)Nc2cc(F)c(F)c(F)c2)CCN1C(=O)c1ccc(-c2cnccn2)[nH]1" , please.
A: > 90%

Q: Query (compound): "O=C(Nc1cc(F)c(F)c(F)c1)[C@H]1CCN(C(=O)c2[nH]c3ncccc3c2Cl)C1" ; field requested: activity at 1 µM
A: 45 to 60%

Q: Give its activity at 1 µM value. Item: "C[C@H]1[C@@H](C(=O)Nc2cc(F)c(F)c(F)c2)CCN1C(=O)c1nc2cccnc2[nH]1"
A: 45 to 60%

Q: Query (compound): "O=C(Nc1cc(F)c(F)c(F)c1)[C@H]1CCN(C(=O)c2ccc(-c3cccnn3)[nH]2)C1" ; field requested: activity at 1 µM
A: 45 to 60%

Q: Look at this compound and give its reported activity at 1 µM. "O=C(Nc1cc(F)c(F)c(F)c1)[C@H]1CCN(C(=O)c2nc3cccnc3[nH]2)C1"
A: 45 to 60%

Q: # get_value(readout='activity at 1 µM', item= "O=C(Nc1cc(F)c(F)c(F)c1)[C@H]1CCN(C(=O)c2ccc(Cc3cccnc3)[nH]2)C1" )
A: > 90%

Q: Requested field: activity at 1 µM. Item: "O=C(Nc1cc(F)c(F)c(F)c1)[C@H]1CCN(C(=O)c2cnc[nH]2)C1"
A: > 90%

Q: Fill in the blank: the reported activity at 1 µM of "N#Cc1cc(NC(=O)[C@H]2CCN(C(=O)c3[nH]c4ccccc4c3Cl)C2)ccc1F" is ____.
A: 45 to 60%

Q: Quick check: activity at 1 µM of "N#Cc1ncccc1-c1ccc(C(=O)N2CC[C@H](C(=O)Nc3ccc(F)c(Cl)c3)C2)[nH]1" ?
A: 45 to 60%
